Target: human GcgR (Homo sapiens)
Sequence (P47871 26-477): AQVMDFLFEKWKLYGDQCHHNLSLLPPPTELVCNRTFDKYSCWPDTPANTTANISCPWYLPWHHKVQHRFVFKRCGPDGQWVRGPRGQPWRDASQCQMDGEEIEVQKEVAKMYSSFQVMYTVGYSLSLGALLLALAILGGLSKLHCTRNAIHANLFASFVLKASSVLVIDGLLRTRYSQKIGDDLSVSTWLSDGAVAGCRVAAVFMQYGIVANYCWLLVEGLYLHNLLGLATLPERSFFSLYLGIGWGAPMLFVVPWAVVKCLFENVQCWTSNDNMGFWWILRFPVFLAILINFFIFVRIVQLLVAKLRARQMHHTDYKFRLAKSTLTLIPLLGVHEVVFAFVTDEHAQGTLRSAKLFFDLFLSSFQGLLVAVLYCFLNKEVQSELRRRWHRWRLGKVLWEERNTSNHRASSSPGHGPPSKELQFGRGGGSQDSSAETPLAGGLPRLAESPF
Experiment: Functional cAMP activity in the presence of 1% HSA
Format: cell-based
Conditions: read-out: cAMP Rel EC50, hGcgR
Starred links: 1 amine or outer side, 2 acyl side, 3 side chain; linkers in the order of their positions; H or OH if unused. Non-standard residues stand in square brackets, D forms with d. Groups on a side chain read outwards from the residue. *: point of attachment. C20 diacid = O=C(O)CCCCCCCCCCCCCCCCCCC(=O)*; C18 diacid = O=C(O)CCCCCCCCCCCCCCCCC(=O)*; αMePhe(2-F) = C[C@](N)(Cc1ccccc1F)C(=O)O; γGlu = O=C(O)[C@H](CCC(=O)[*:2])N[*:1]; αMeY = C[C@](N)(Cc1ccc(O)cc1)C(=O)O; 4Pal = N[C@@H](Cc1ccncc1)C(=O)O; αMeL = CC(C)C[C@](C)(N)C(=O)O; αMeS = C[C@](N)(CO)C(=O)O; Orn = NCCC[C@H](N)C(=O)O; AEEA = NCCOCCOCC(=O)O; Aib = CC(C)(N)C(=O)O
Test readout: pEC50
The meaning of pEC50 here: minus log10 of the concentration in molar units.

Worked set:
Substance | System tested | pEC50
H-Y[Aib]QGT[αMePhe(2-F)]TSD[4Pal][αMeS]I[αMeL]LD[Orn]K([γGlu-γGlu-C18 diacid])AQ[Aib]NFI[dE][αMeY]LQEGGPSSGEPPPEGTGE-NH2 [Example 527] | human GcgR (Homo sapiens) | 6.24
H-Y[Aib]QGTFTSDFS[Orn][αMeL]LDKK([AEEA-γGlu-γGlu-C18 diacid])AQ[Aib]AFIEYLLE[Aib]GPSSGAPPPSGS-NH2 [Example 192] | human GcgR (Homo sapiens) | 6.25

Switching to the query record.
Qu. GET /values?readout=pEC50&item= H-Y[Aib]QGTFTSDFSK[αMeL]LDKK([AEEA-γGlu-C20 diacid])AQ[Aib]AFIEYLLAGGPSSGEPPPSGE[AEEA]-NH2 [Example 33]
Ans. 5.88

This collection of values is drawn from patent US20240270821A1.
